run description: physchem

{"compound": "CC(C)[C@@H](C)/C=C/[C@@H](C)[C@H]1CC[C@@H]2[C@]1(C)CC[C@H]1[C@]23C=C[C@]2(C[C@@H](O)CC[C@]12C)OO3 [compound 3, ergosterol peroxide]", "solubility": "< 50 µM"}

---

# EC50 per record follows
System: HMEC
run description: CellTiterGlo
Assay type: cell-based
condition label: Homo sapiens, read-out: HMEC EC50

{"compound": "CC(=O)O[C@H]1C(=O)[C@@]2(C)[C@H]([C@H](OC(=O)c3ccccc3)[C@]3(O)C[C@H](OC(=O)[C@H](O)[C@@H](NC(=O)c4ccccc4)c4ccccc4)C(C)=C1C3(C)C)[C@]1(OC(C)=O)CO[C@@H]1C[C@@H]2O", "EC50": "> 10 µM"}
{"compound": "CCCCCOC(=O)Nc1nc(=O)n([C@@H]2O[C@H](C)[C@@H](O)[C@H]2O)cc1F", "EC50": "10 µM"}
{"compound": "CC(C)[C@@H](C)/C=C/[C@@H](C)[C@H]1CC[C@@H]2[C@]1(C)CC[C@H]1[C@]23C=C[C@]2(C[C@@H](O)CC[C@]12C)OO3 [compound 3, ergosterol peroxide]", "EC50": "> 20 µM"}
{"compound": "COc1cccc2c1C(=O)c1c(O)c3c(c(O)c1C2=O)C[C@@](O)(C(=O)CO)C[C@@H]3O[C@H]1C[C@H](N)[C@H](O)[C@H](C)O1", "EC50": "> 10 µM"}

---

System: MDA-MB-231
run description: CellTiterGlo
Type: cell-based
condition label: Homo sapiens, MDA-MB-231, read-out: MDA-MB-231 EC50
endpoint label: EC50 (µM)

{"compound": "CC(C)[C@@H](C)/C=C/[C@@H](C)[C@H]1CC[C@@H]2[C@]1(C)CC[C@H]1[C@]23C=C[C@]2(C[C@@H](O)CC[C@]12C)OO3 [compound 3, ergosterol peroxide]", "system under test": "MDA-MB-231", "observed": 18}
{"compound": "COc1cccc2c1C(=O)c1c(O)c3c(c(O)c1C2=O)C[C@@](O)(C(=O)CO)C[C@@H]3O[C@H]1C[C@H](N)[C@H](O)[C@H](C)O1", "system under test": "MDA-MB-231", "observed": 1}
{"compound": "CC(=O)O[C@H]1C(=O)[C@@]2(C)[C@H]([C@H](OC(=O)c3ccccc3)[C@]3(O)C[C@H](OC(=O)[C@H](O)[C@@H](NC(=O)c4ccccc4)c4ccccc4)C(C)=C1C3(C)C)[C@]1(OC(C)=O)CO[C@@H]1C[C@@H]2O", "system under test": "MDA-MB-231", "observed": 2}
{"compound": "CCCCCOC(=O)Nc1nc(=O)n([C@@H]2O[C@H](C)[C@@H](O)[C@H]2O)cc1F", "system under test": "MDA-MB-231", "observed": 5}
